- Experimental Protocol: S6 kinase pathway phospho-S6 level changes – cell-based, A549, cytoblot, luminescence, serum-stimulated, primary screen (AID 1158);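 further: serum-stimulated A549 lung adenocarcinoma cells; signal is phosphorylated S6 detected by cytoblot immunostaining with HRP secondary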
- Test Settings: 5 h, higher = more signal
Metric: z-score
Keep the answer to the number alone.

// below: answered molecules
Molecule	Reported
CC[C@@H]1O[Si](C(C)C)(C(C)C)c2c1cc(-c1cc(C)c(OC)c(C)c1)nc2-c1ccc(Oc2ccccc2)cc1	0.189
COc1cc(NN2C(C(O)c3ccc(N(C)C)cc3)C=CC3C(=O)N(c4ccccc4)C(=O)C32)cc(OC)c1OC (centres undefined)	1.15
O=c1cccc(-c2ccc([N+](=O)[O-])cc2)o1	0.248

Ask: Look up z-score for this molecule: COCCOC(=O)N1C(=O)[C@@]2(c3ccccc31)[C@H](C(=O)NC[C@H](O)c1ccccc1)[C@H]1C(=O)O[C@H](c3ccccc3)[C@H](c3ccccc3)N1[C@@H]2c1ccc(O)cc1
Result: 0.315

* * *

- Test system: Inhibin beta A chain (activin A)
- Experimental Protocol: small molecules binding activin A – biochemical, small-molecule microarray, 635 nm fluorescence scan, primary screen (AID 1107);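 further: mouse activin A protein probed at 4.33 µg/mL on printed slides; score merges bound-protein fluorescence near 667 nm with spot signal-to-noise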
- Test Settings: INHBA, higher = more signal
Assign true whenever composite z-score does not fall below 0.3; assign false whenever it does.

Take a look at these entries with their results.
Molecule	Label Class
C=CC[C@]1(C(=O)N2CCCCC2)N=C(c2ccc(OCCCO)cc2)O[C@H]1c1ccccc1CN=[N+]=[N-]	true
O=C1C2C=CC(C(O)c3cccc(O)c3)N(Nc3ccc([N+](=O)[O-])cc3)C2C(=O)N1c1ccccc1 (centres undefined)	false
CC(C)c1ccc(NN2C(C(O)c3ccc(C#N)cc3)C=CC3C(=O)N(c4ccccc4)C(=O)C32)cc1 (centres undefined)	true
CC[C@@H]1O[Si](C(C)C)(C(C)C)c2c1cc(-c1cc(C)c(OC)c(C)c1)nc2-c1ccc(Oc2ccccc2)cc1	false
CS(=O)(=O)CCOC(=O)C1=CC(c2ccc(CO)cc2)=CC(C2CC2)N(Cc2sc3ccccc3c2Cl)C=C1C(=O)OCCS(C)(=O)=O (centres undefined)	true

Ask: Is composite z-score for CN1C2C=C(CCCO)C(C3C(=O)N(C(N)=O)C(=O)C32)C1C1CC1 (centres undefined) at or above 0.3?
Result: false

Ask: Is composite z-score for CC(C)N1C(=O)c2ccccc2[C@@H](C(=O)NCCN2CCOCC2)[C@@H]1c1ccc(CO)cc1 at or above 0.3?
Result: false

Ask: Is composite z-score for NC(=O)NCC#Cc1ccc2c(c1)[C@]1(C(=O)N2)[C@H](c2ccccc2OCCO)N2[C@H](c3ccccc3)[C@H](c3ccccc3)OC(=O)[C@H]2[C@@H]1C(=O)NC[C@H](O)c1ccccc1 at or above 0.3?
Result: true

Ask: Is composite z-score for CC1=C2[C@@H](CCc3ccccc3)OB(O)C[C@@H]2[C@@H]2C(=O)N(C)C(=O)[C@@H]2C1 at or above 0.3?
Result: false

* * *

- Test system: Inhibin beta A chain (activin A)
- Experimental Protocol: small molecules binding activin A – biochemical, small-molecule microarray, 635 nm fluorescence scan, primary screen (AID 1107);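 further: mouse activin A protein probed at 4.33 µg/mL on printed slides; score merges bound-protein fluorescence near 667 nm with spot signal-to-noise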
- Test Settings: INHBA, higher = more signal
Metric: composite z-score
Keep the answer to the number alone.

// below: answered compounds
Compound	composite z-score
COC(=O)[C@@]1(Cc2ccccc2)[C@H]2c3cc(C(=O)N(C)C)n(Cc4ccc(C)o4)c3C[C@H]2CN1C(=O)c1ccccc1	1.44
COCCOC(=O)N1C(=O)[C@@]2(c3cc(C#CC4=CCCCC4)ccc31)[C@H](c1ccccc1OCCO)N1[C@H](c3ccccc3)[C@H](c3ccccc3)OC(=O)[C@H]1[C@@H]2C(=O)NC[C@H](O)c1ccccc1	0.755

Ask: Look up composite z-score for this compound: CCCCC[C@H]1OC[C@@]23C=C(Br)[C@@H](CC12)[C@@]1(CO1)C3=O (stereo partly drawn)
Result: 0.0936

Source of measurements: PubChem BioAssay
